tested on: IGROV1 ovarian; test: NCI-60 one-dose screen, 48 h (100 = growth as untreated, 0 = no growth, -100 = all killed); details: 10 µM unless noted
Compounds without any hit were thinned out: in the full panel of roughly 83,000, 20% have a hit. The source made the active and inactive calls. Rule for the calls: active = growth percent below 10; inactive = the rest.
Collected growth values appear next to each entry.

INSERT INTO measurements (molecule, system, observation_type, obs_value) VALUES
  ('N#Cc1c(-c2ccccc2)cc(-c2ccccc2)n(CCCCC(=O)O)c1=O', 'IGROV1 ovarian', 'growth', '102% (inactive)'),
  ('O=C(CN1CCN(c2ccc(Cl)cc2)CC1)N1CCN(c2nnc(-c3ccc(Cl)cc3)c(-c3ccc(Cl)cc3)n2)CC1', 'IGROV1 ovarian', 'growth', '37.7% (inactive)'),
  ('CC(=O)N1N=C(c2ccc(C(F)(F)F)cc2)CC1c1ccc2c(c1)OCO2 (centres undefined)', 'IGROV1 ovarian', 'growth', '67% (inactive)');

Next, consider the following molecule.
Query block: GET /values?readout=growth&item= `COc1ccc(Oc2ccccc2NC(=O)CNC(=O)c2cccc3ccccc23)cc1`
Result block: 33% [5 µM] (inactive)
